# System: SW-620
# procedureText: NCI tumour cell line growth inhibition, 48 h
Active and inactive are the calls of the source. Rule as the data show it: active = GI50 up to about 1.1 µM and inactive = higher.
measurementName: GI50

{"columns": ["compound", "observed"],
 "data": [
  ["C(=N\\c1cc2cc(Sc3ccccc3)ccc2[nH]1)/c1ccccc1", "> 12.5 µM (inactive)"],
  ["COc1cc(O)c(C(C)=O)c(O)c1", "> 100 µM (inactive)"]
]}

Consider the additional compound presented here.
# input Entry CCN(CC)CCNc1ccc2nnn3c4ccc(C)cc4c(=O)c1c23 : reported GI50 = ?
# output 4.63 µM (inactive)

* * *

# System: NCI-H460
# procedureText: NCI tumour cell line growth inhibition, 48 h
The source made the active and inactive calls. Rule as the data show it: active = GI50 up to about 1.1 µM and inactive = higher.
Entries and their measured GI50 follow.

{"columns": ["compound", "observed"],
 "data": [
  ["CC(C)OP(=O)(OC(C)C)c1c(N)n[nH]c1Nc1ccccc1", "> 100 µM (inactive)"],
  ["O=Cc1c2c(cc3c1CC1(C3)Cc3cc4c(c(C=O)c3C1)CCCC4)CCCC2", "52.2 µM (inactive)"],
  ["NC1=NCCN1CC(=O)O", "> 1000 µM (inactive)"],
  ["Nc1ncnc2c1ncn2C1OC(CO)C(O)C1O (stereo unspecified)", "22.3 µM (inactive)"],
  ["CN(CCNC(=O)c1cn(C)c2c1ccc1cc(Cl)ccc12)CCNC(=O)c1cn(C)c2c1ccc1cc(Cl)ccc12", "3.24 µM (inactive)"],
  ["CSc1nc2c3ccccc3ccn2c1C(=O)N/N=C/c1ccccc1", "17.3 µM (inactive)"],
  ["CCc1c[n+]([O-])c(C)cc1[N+](=O)[O-]", "20.7 µM (inactive)"],
  ["Cc1[nH]c(=O)nc(N/N=C/c2ccc(O)cc2)c1C(=O)Nc1ccc(Cl)cc1", "> 100 µM (inactive)"],
  ["COc1ccc([S+]([O-])Cc2cc(OC)ccc2OC)cc1 (stereo unspecified)", "> 100 µM (inactive)"],
  ["c1ccc(CN(Cn2cccn2)Cn2cccn2)nc1", "> 100 µM (inactive)"]
]}

Consider the additional compound presented here.
# input Entry C=CC1(CCC(Br)C(C)(C)Cl)CO1 (stereo unspecified) : reported GI50 = ?
# output > 10 µM (inactive)

Hello, the source for this data is ChEMBL document CHEMBL1201862, in case you need it.
